Reported Mortality values follow for various molecules
- Test system: reperfusion-induced arrhythmia upon myocardial ischemia
- method notes: Reperfusion-induced arrhythmia inhibitory action test
- Assay type: in vivo, rat
- experimental conditions: male SD rats, 3.62 mmol/L, 1 mL/kg intravenous, within 10 minutes after reperfusion
- Method: Subsequently, in evaluation of the in vivo NHE inhibitory action, the effect of the test compound on reperfusion-induced arrhythmia upon myocardial ischemia was evaluated according to the method of Aihara et al. [European Journal of Pharmacology, Vol. 404, p. 221-229 (2000)]. […] The blood pressure was measured using a strain pressure amplifier via a pressure transducer, while the heart rate was measured from the blood pressure pulse wave using a cardiotachometer. […]
Output spec: scalar in %, unitless text.

// known answers, use as guide
molecule	Mortality, %
Cc1nc2c(cc1C(=O)NC(=N)N)CCCCC2COP(=O)([O-])[O-].[Na+].[Na+] (stereo not shown) [Reference Compound 20, reference compound]	40
Cc1nc2c(cc1C(=O)NC(=N)N)CCCCC2COC(=O)N[C@H]1CO[C@H]2[C@@H]1OC[C@H]2OS(=O)(=O)O (stereo partly shown) [Inventive Compound 12]	0

Indicate the recorded Mortality value for this molecule: Cc1nc2c(cc1C(=O)NC(=N)N)CCCCC2COC(=O)NCCOCCOS(=O)(=O)O (stereo not shown) [Inventive Compound 7]
0

Indicate the recorded Mortality value for this molecule: Cc1nc2c(cc1C(=O)NC(=N)N)CCCCC2CS(=O)(=O)[O-].[Na+] (stereo not shown) [Inventive Compound 4]
0

Indicate the recorded Mortality value for this molecule: CS(=O)(=O)O.Cc1nc2c(cc1C(=O)NC(=N)N)CCCCC2CO (stereo not shown) [Control Compound, reference compound]
25

Indicate the recorded Mortality value for this molecule: Cc1nc2c(cc1C(=O)NC(=N)N)CCCCC2COS(=O)(=O)[O-].[Na+] (stereo not shown) [Inventive Compound 2]
20

Indicate the recorded Mortality value for this molecule: Cc1nc2c(cc1C(=O)NC(=N)N)CCCCC2COC(=O)NCCOCCOCCOCCOCCOCCOS(=O)(=O)[O-].[Na+] (stereo not shown) [Inventive Compound 10]
0

###

Reported pIC50 values follow for various compounds
- target: Na^+/H^+ exchanger (NHE) (Rattus norvegicus, UniProt P26431)
- Sequence (P26431 whole entry): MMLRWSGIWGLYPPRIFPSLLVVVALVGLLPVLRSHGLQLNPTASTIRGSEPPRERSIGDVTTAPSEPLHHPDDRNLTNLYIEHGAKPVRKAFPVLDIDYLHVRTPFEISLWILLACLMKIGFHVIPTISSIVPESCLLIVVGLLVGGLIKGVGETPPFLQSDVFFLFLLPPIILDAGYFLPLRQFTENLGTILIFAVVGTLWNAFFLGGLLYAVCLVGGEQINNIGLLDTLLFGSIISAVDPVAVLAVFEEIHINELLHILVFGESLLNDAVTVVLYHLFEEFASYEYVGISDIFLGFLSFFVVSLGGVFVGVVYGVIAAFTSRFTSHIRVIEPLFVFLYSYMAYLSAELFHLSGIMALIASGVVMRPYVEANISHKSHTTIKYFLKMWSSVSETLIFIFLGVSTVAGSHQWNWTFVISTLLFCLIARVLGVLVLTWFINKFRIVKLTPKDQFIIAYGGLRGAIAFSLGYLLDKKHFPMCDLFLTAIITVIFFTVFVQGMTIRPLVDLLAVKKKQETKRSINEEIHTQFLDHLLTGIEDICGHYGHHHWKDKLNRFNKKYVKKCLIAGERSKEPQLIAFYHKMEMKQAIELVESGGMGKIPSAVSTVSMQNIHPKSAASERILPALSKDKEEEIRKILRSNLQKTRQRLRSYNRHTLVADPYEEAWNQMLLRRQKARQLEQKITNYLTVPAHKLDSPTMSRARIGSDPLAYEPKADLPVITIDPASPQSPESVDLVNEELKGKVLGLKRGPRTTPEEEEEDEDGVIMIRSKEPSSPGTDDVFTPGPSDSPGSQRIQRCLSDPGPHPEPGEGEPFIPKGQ
- method notes: NHE inhibitory effect test (swelling of rat platelets induced by sodium propionate)
- experimental conditions: rat platelet-rich plasma, sodium propionate buffer pH 6.7; 300 μM Amiloride taken as 100% inhibition; Probit method
- Procedure: The NHE inhibitory activity was measured according to the method by Scholz et al. [British Journal of Pharmacology, Vol. 109, p. 562-568 (1993)], taking the swelling of rat platelets induced by sodium propionate as an index. Under etherization, blood was collected (8 mL) from the abdominal aorta of a Wistar rat, and 1 mL of a citrate dextrose solution as an anticoagulant was added. […]
Lab note: report pIC50 as minus log10 of the concentration in molar units, number only.

compound	pIC50
Cc1nc2c(cc1C(=O)NC(=N)N)CCCCC2CS(=O)(=O)[O-].[Na+] (stereo not drawn) [Inventive Compound 4, sodium salt]	6.68

Now look at this one.
Report the value of pIC50 obtained on Na^+/H^+ exchanger (NHE) (Rattus norvegicus, UniProt P26431) for Cc1nc2c(cc1C(=O)NC(=N)N)CCCCC2COC(=O)NCCOCCOCCOCCOCCOCCOS(=O)(=O)[O-].[Na+] (stereo not drawn) [Inventive Compound 10, sulfate sodium salt] .
6.54

###

- target: Na^+/H^+ exchanger (NHE) (Rattus norvegicus)
- method notes: NHE inhibitory effect test (swelling of rat platelets induced by sodium propionate)
- experimental conditions: rat platelet-rich plasma, sodium propionate buffer pH 6.7; 300 μM Amiloride taken as 100% inhibition; Probit method
readout label: IC50

// known answers, use as guide
molecule	target	readout label	result
Cc1nc2c(cc1C(=O)NC(=N)N)CCCCC2COC(=O)NCCOCCOS(=O)(=O)O (stereo not shown)	Na^+/H^+ exchanger (NHE) (Rattus norvegicus)	IC50	313 nM
Cc1nc2c(cc1C(=O)NC(=N)N)CCCCC2COC(=O)N[C@H]1CO[C@H]2[C@@H]1OC[C@H]2OS(=O)(=O)O (stereo partly shown)	Na^+/H^+ exchanger (NHE) (Rattus norvegicus)	IC50	227 nM
Cc1nc2c(cc1C(=O)NC(=N)N)CCCCC2COC(=O)NCCOS(=O)(=O)[O-].[Na+] (stereo not shown) [Inventive Compound 6, sulfate sodium salt]	Na^+/H^+ exchanger (NHE) (Rattus norvegicus)	IC50	142 nM

Now look at this one.
Indicate the recorded IC50 value for this molecule: Cc1nc2c(cc1C(=O)NC(=N)N)C(OS(=O)(=O)O)CCCC2 (stereo not shown) [Reference Compound 23, reference compound]
37100 nM

###

- target: Na^+/H^+ exchanger (NHE) (Rattus norvegicus, UniProt P26431)
- method notes: NHE inhibitory effect test (swelling of rat platelets induced by sodium propionate)
- experimental conditions: rat platelet-rich plasma, sodium propionate buffer pH 6.7; 300 μM Amiloride taken as 100% inhibition; Probit method
readout label: IC50
Answer with the number, then the unit.

// known answers, use as guide
molecule	IC50
Cc1nc2c(cc1C(=O)NC(=N)N)CCCCC2COS(=O)(=O)[O-].[Na+] (stereo not drawn) [Inventive Compound 2, sulfate sodium salt]	143 nM
CS(=O)(=O)O.Cc1nc2c(cc1C(=O)NC(=N)N)CCCCC2CO (stereo not drawn) [Control Compound, reference compound]	33.4 nM

Now look at this one.
Report the value of IC50 obtained on Na^+/H^+ exchanger (NHE) (Rattus norvegicus, UniProt P26431) for Cc1nc2c(cc1C(=O)NC(=N)N)CCCCC2COP(=O)([O-])[O-].[Na+].[Na+] (stereo not drawn) [Reference Compound 20, phosphate disodium salt, reference compound] .
662 nM

###

- method notes: Comparative test for transferability to the brain in rat
- Type: in vivo
- experimental conditions: rat, brain/plasma, intravenous; male SD rats, 50 mg/kg via tail vein, 15 min; read-out: Concentration Intracerebral/Plasma, after 15 min
readout label: Kp at 15 min
Could you keep your reply to the number by itself?

Indicate the recorded Kp at 15 min value for this molecule: Cc1nc2c(cc1C(=O)NC(=N)N)CCCCC2COS(=O)(=O)[O-].[Na+] (stereo not shown) [Inventive Compound 2, sulfate sodium salt]
0.29
